Test system: A. fumigatus CEA10 reference strain
measurementDescription: Fluconazole potentiator screen: MIC by CLSI microbroth dilution with and without fluconazole
Type: cell-based, Aspergillus fumigatus
cond: with 32 μg/ml fluconazole; normoxia; GMM, 18 h, 37 °C
Mark Condition met for MIC (ug/mL) (+) Fluc under 4 µg/mL, Condition not met if at or over.

Answered cases to consult:
O=C(c1ccncc1)N1CCC(Cc2ccc(COc3ccncc3)cc2)CC1	Condition not met
CC1CN(Cc2ccc(CC3CCN(S(=O)(=O)c4cccc(F)c4)CC3)cc2)CC(C)O1 (stereo not drawn)	Condition not met
O=C(O)c1cccc(S(=O)(=O)N2CCC3(CC2)CC(CCOc2ccncc2)CCO3)c1 (stereo not drawn)	Condition not met
O=C(c1ccsc1)N1CC[C@H](Cc2ccc(COc3ccncc3)cc2)C1	Condition met
COc1cccc(C(=O)N2CCC(Cc3ccc(COc4ccncc4)cc3)CC2)c1	Condition not met

Challenge: Is it true that MIC (ug/mL) (+) Fluc reported for O=S(=O)(c1cncs1)N1CCC2(CC1)CC(CCOc1ccncc1)CCO2 (stereo not drawn) is less than 4 µg/mL?
Response given: Condition not met

Challenge: Note, next up: CC(C1CCN(Cc2ccc(CN3CCOCC3)cc2)CC1)S(=O)(=O)c1ccc(F)cc1 (stereo not drawn)
Response given: Condition not met

Challenge: Repeat for the following compound: O=C(c1ccsc1)N1CCC(Oc2ccc(COc3ccncc3)cc2)CC1
Response given: Condition not met

Challenge: What do we get for O=C(c1ccsc1)N1CC(Cc2ccc(COc3ccncc3)cc2)C1 ?
Response given: Condition not met

Challenge: Quick one: O=S(=O)(c1ccc(C(F)(F)F)nc1)N1CCC(Cc2ccc(COc3ccncc3)cc2)C1 (stereo not drawn)
Response given: Condition not met

Challenge: Also, COC(=O)c1ccc(C(=O)N2CCC(Cc3ccc(COc4ccncc4)cc3)CC2)cc1 please.
Response given: Condition not met

Challenge: Param item: O=S(=O)(c1cc(F)cc(F)c1)N1CCC(Cc2ccc(CN3CCOCC3)cc2)CC1
Response given: Condition met
